Overview of reported TGI across a group of molecules:
Tested on: HT29 colon
Assay: NCI tumour cell line growth inhibition, 48 h

// below: answered molecules
[[record]]
molecule = "CC1=C(C#N)C(=O)N(/N=C/c2ccc(Cl)cc2)C(=O)/C1=c1\\o/c(=C2/C(=O)N(/N=C/c3ccc(Cl)cc3)C(=O)C(C#N)=C2C)c2nccnc12"
value_measured = "> 100 µM"

[[record]]
molecule = "CC1(C)C[C@H]2C3=CC[C@@H]4[C@@]5(C)CC[C@H](O)C(C)(C)[C@@H]5CC[C@@]4(C)[C@]3(C)C[C@@H](O)[C@@]23C[C@@H]1OC3=O"
value_measured = "> 100 µM"

[[record]]
molecule = "CCC(C)C(NC(=O)C(CCCCN)NC(=O)C(NC(=O)C(CCC(N)=O)NC(=O)C(CCCNC(=N)N)NC(C)=O)C(C)CC)C(=O)NC(Cc1c[nH]c2ccccc12)C(=O)NC(Cc1ccccc1)C(=O)NC(CCC(N)=O)C(=O)NC(CC(N)=O)C(=O)NC(CCCNC(=N)N)C(=O)NC(CCCNC(=N)N)C(=O)NC(CCSC)C(=O)NC(CCCCN)C(=O)NC(Cc1c[nH]c2ccccc12)C(=O)NC(CCCCN)C(=O)NC(CCCCN)C(N)=O (stereo not given)"
value_measured = "> 50 µM"


Task: # get_value(readout='TGI', item= [N-]=[N+]=Nc1cc(=O)n(-c2ccccc2)c(=O)n1-c1ccccc1 )
Output: > 100 µM

Task: Fill blank: measured TGI of the molecule C=C1C(=O)O[C@H]2[C@H]1CC/C(COC(=O)N[C@@H](Cc1c[nH]c3ccccc13)C(=O)OC)=C\CC[C@@]1(C)O[C@@H]21 is ____.
Output: 3.04 µM

---

Tested on: HCC-2998 colon
Assay: NCI tumour cell line growth inhibition, 48 h
molecules and their reported TGI
// units = µM; emit number, no label

# annotated cases, reported TGI shown
[[record]]
molecule = "CC(C)[Si](OCC/C=C/C1CCC(=O)C1C(O)C1CCCCC1)(C(C)C)C(C)C (stereo unspecified)"
property_name = "TGI"
quantity_unit = "µM"
value_measured = 23.2

[[record]]
molecule = "O=C(NN1C(=O)/C(=C/c2ccc(Cl)cc2)N=C1c1ccccc1)c1c(Cl)c(Cl)c(Cl)c(Cl)c1-c1nc2ccccc2[nH]1"
property_name = "TGI"
quantity_unit = "µM"
value_measured = 31.8


Task: What does the data say about its TGI? Entry: CC(=O)C1=C(O)C2(O)C(=O)c3c(c(C)c4ccc(C)c(O)c4c3O)CC2C(N)C1=O (stereo unspecified)
Output: 15

---

System: MALME-3M melanoma
Test: NCI tumour cell line growth inhibition, 48 h
*1 amine or outer side, *2 acyl side, *3 side chain or, on linkers, in order; H or OH if unused. Where a SMILES comes first, the peptide text is derived from it. CO = O=C([*:1])[*:2]
Property Name: GI50

Worked examples, 5 molecules total:
[[record]]
molecule = "CC(C)C(NC(=O)C(CCCN=C(N)N)NC(=O)NC(Cc1ccccc1)C(=O)O)C(=O)NC(C=O)CCCN=C(N)N (stereo not drawn) ({Phe-CO}-Arg-Val-Arg-aldehyde; configuration not given here)"
study_system = "MALME-3M melanoma"
value_measured = "> 5 µM"

[[record]]
molecule = "O=C1CN2CCC1C/C2=C\\c1ccnc2c(Cl)cccc12 (stereo not drawn)"
study_system = "MALME-3M melanoma"
value_measured = "91.9 µM"

[[record]]
molecule = "N#C/C(=C\\c1ccc(Cl)cc1)n1nnc2cc(F)c(F)cc21"
study_system = "MALME-3M melanoma"
value_measured = "2.06 µM"

[[record]]
molecule = "O=[N+]([O-])c1ccccc1/C=C/C=C1c2ccccc2-c2ccccc21"
study_system = "MALME-3M melanoma"
value_measured = "> 100 µM"

[[record]]
molecule = "COc1cc(-c2ccc(-[n+]3nc(-c4ccc([N+](=O)[O-])cc4)nn3-c3ccc([N+](=O)[O-])cc3)c(OC)c2)ccc1-[n+]1nc(-c2ccc([N+](=O)[O-])cc2)nn1-c1ccc([N+](=O)[O-])cc1"
study_system = "MALME-3M melanoma"
value_measured = "1.89 µM"


Task: Please give the measured GI50 for this molecule: Cc1cc(Nc2nc(N3CCOCC3)nc3ccccc23)n[nH]1
Output: 44.2 µM

Task: // lookup GI50 for CNC(=O)c1ccc(Nc2nc(OC3CCCC3)c3c(-c4ccc5nc(C)oc5c4)c[nH]c3n2)c(OC)c1
Output: 21.6 µM

Task: Returns the measured GI50 for the input molecule. Input: CC1(C)OC(=O)C=C(O)O1.CC1(C)OC(=O)C=C(O)O1.CCO.Oc1ccc2c(c1)CCC2.[Ti]
Output: > 100 µM

---

Tested on: SF-268 CNS
Assay: NCI tumour cell line growth inhibition, 48 h
Here, each record is paired with measured TGI data.

Consider the reported TGI for these compounds:
[[record]]
compound = "C=C1C(C2(C)C=CC(=O)OC3(C)COC(=O)CC32)C(OC=O)C(OC(=O)C(O)C(C)CC)C2(C)C(c3ccoc3)CC(OC(C)=O)C12O (stereo not given)"
value_measured = "> 100 µM"

[[record]]
compound = "O=C(n1[nH]c(=O)n(-c2ccc([N+](=O)[O-])cc2)c1=O)C(Cl)(Cl)Cl"
value_measured = "> 75 µM"

[[record]]
compound = "Cc1cc(C)n(C(=O)C(C)Sc2nnc(SC(C)C(=O)n3nc(C)cc3C)s2)n1 (stereo not given)"
value_measured = "> 100 µM"


Task: Quick check: TGI on SF-268 CNS, item N#Cc1c(N)nc(N2CCOCC2)c(C#N)c1-c1cccc(O)c1 ?
Output: > 100 µM

Task: Please provide the recorded TGI for CCOC(=O)CCc1c(C)c2ccc(O)cc2oc1=O , tested on SF-268 CNS.
Output: > 100 µM

---

Test system: SNB-75 CNS
Test: NCI tumour cell line growth inhibition, 48 h; in the data active = GI50 below about 0.43 µM; inactive = the rest
Hi! Could you answer with just one of these? active, inactive

[[record]]
smiles_input = "COc1cc(/C=C/C(=O)CC(=O)/C=C/c2ccc(OC(=O)CCNC34CC5CC(CC(C5)C3)C4)c(OC)c2)ccc1OC(=O)CCNC12CC3CC(CC(C3)C1)C2"
label = "inactive"

[[record]]
smiles_input = "CCSc1nc(=S)[nH]c2[nH]ncc12"
label = "inactive"

[[record]]
smiles_input = "N#C/C(=C\\c1ccc(Cl)cc1)n1nnc2cc(F)c(F)cc21"
label = "inactive"

[[record]]
smiles_input = "COC1(OC)C[C@H](C)[C@@]23O[C@]24c2cc(O)c5c(c2N[C@H]3C#C/C=C\\C#C[C@]14O)C(=O)c1ccccc1C5=O"
label = "active"


Task: Call for entry COc1ccc2c(c1)C(=O)c1c-2c(N2CCN(C(=O)CN(C)C)CC2)nc2ccccc12 :
Output: inactive

Task: What was the test verdict on Cc1cc(Nc2ncc(Cl)c(Nc3ccccc3S(=O)(=O)C(C)C)n2)c(OC(C)C)cc1C1CCNCC1 ?
Output: inactive

Task: Would you mind telling me which call this test gave C=C1C(=O)O[C@H]2[C@H]1CC/C(Cn1cc(Cn3ccc4cc(Cl)ccc43)nn1)=C\CC[C@@]1(C)O[C@@H]21 ?
Output: inactive

Task: # lookup: test call for CNC(=O)c1ccc(Nc2nc(OC3CCCC3)c3c(-c4ccc5nc(C)oc5c4)c[nH]c3n2)c(OC)c1
Output: inactive

---

GI50 reference
System: NCI-H522 lung
Experiment: NCI tumour cell line growth inhibition, 48 h

Worked examples follow.
[[record]]
smiles_input = "N#Cc1c(SCc2ccccc2)nc2[nH]c(=S)[nH]c(=S)c2c1-c1ccco1"
property_name = "GI50"
value_measured = "> 100 µM"

[[record]]
smiles_input = "CN1CCN(Cc2ccc(NC(=O)c3[nH]ncc3Nc3ccnc4ccsc34)cc2)CC1"
property_name = "GI50"
value_measured = "1.98 µM"

[[record]]
smiles_input = "C[C@]12CC[C@H]3[C@@H](CC=C4C[C@@H](O)CC[C@@]43C)[C@@H]1C/C(=C\\c1cccc(OCCCn3ccnc3)c1)[C@@H]2O"
property_name = "GI50"
value_measured = "14.6 µM"


// switching to the query compound
Task: // returns reported GI50 for input CCOC(=O)c1ccc2[nH]c(Cc3[nH]c4ccc(C(=O)OCC)cc4c3C)c(C)c2c1
Output: 3.27 µM

---

System: ACHN renal
Experiment: NCI tumour cell line growth inhibition, 48 h; in the data active = GI50 below about 0.43 µM; inactive = the rest
*1 amine or outer side, *2 acyl side, *3 side chain or, on linkers, in order; H or OH if unused. Where a SMILES comes first, the peptide text is derived from it. CO = O=C([*:1])[*:2]
Tick one outcome: true for active, false for inactive

[[record]]
compound = "CCC[CH2][Sn]([CH2]CCC)([O]C(=O)c1cccc(F)c1F)[O][Sn]([CH2]CCC)([CH2]CCC)[O]C(=O)c1cccc(F)c1F"
study_system = "ACHN renal"
label = "true"

[[record]]
compound = "COc1cc(/C=C/C(=O)CC(=O)/C=C/c2ccc(OC(=O)CCNC34CC5CC(CC(C5)C3)C4)c(OC)c2)ccc1OC(=O)CCNC12CC3CC(CC(C3)C1)C2"
study_system = "ACHN renal"
label = "false"

[[record]]
compound = "CC(C)C(NC(=O)C(CCCN=C(N)N)NC(=O)NC(Cc1ccccc1)C(=O)O)C(=O)NC(C=O)CCCN=C(N)N (stereo not drawn) ({Phe-CO}-Arg-Val-Arg-aldehyde; configuration not given here)"
study_system = "ACHN renal"
label = "false"

[[record]]
compound = "CCN(CC)CCCC(C)N/C(c1cccc(OC)c1)=c1\\c(=O)[nH]n(-c2c3ccccc3nc3ccccc23)c(=O)\\c1=C(/NC(C)CCCN(CC)CC)c1cccc(OC)c1 (centres undefined)"
study_system = "ACHN renal"
label = "false"

[[record]]
compound = "N#C/C(=C\\c1ccc(Cl)cc1)n1nnc2cc(F)c(F)cc21"
study_system = "ACHN renal"
label = "false"


# evaluate next
Task: Hey, what did the test say about O=c1[nH]cnc2c1nnn2[C@@H]1O[C@H](CO)[C@@H](O)[C@H]1O ?
Output: false
